Target: T1, hIL-3 receptor (human, UniProt P26951)
T1 sequence: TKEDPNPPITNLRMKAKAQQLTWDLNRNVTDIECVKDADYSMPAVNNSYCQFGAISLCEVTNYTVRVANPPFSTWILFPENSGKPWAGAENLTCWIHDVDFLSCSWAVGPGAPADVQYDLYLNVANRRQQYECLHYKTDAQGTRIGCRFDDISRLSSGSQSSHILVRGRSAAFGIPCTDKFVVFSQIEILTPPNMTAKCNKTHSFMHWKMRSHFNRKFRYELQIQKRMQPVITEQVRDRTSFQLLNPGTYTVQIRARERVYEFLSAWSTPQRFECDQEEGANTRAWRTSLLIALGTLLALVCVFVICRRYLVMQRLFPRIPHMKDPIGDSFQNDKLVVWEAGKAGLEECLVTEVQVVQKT
Assay: cell-based or functional assay
measured-endpoint: Relative Biological Activity (AML 193 proliferation)

Given the entry pMON13312 polypeptide (ligand) MANCSIMIDEIIHHLKRPPNPLLDPNNLNSEDMDILMERNLRTPNLLAFVRAVKHLENASGIEAILRNLVPCLPSATAAPSRHPITIKAGDWQEFREKLTFYLVTLEQAQEQQ , report its measured Relative Biological Activity (AML 193 proliferation).
4 EC50 (1-133)hIL-3 / EC50 mutant

Same question for pMON13303 polypeptide (ligand) MANCSIMIDEIIHHLKVPPAPLLDSNNLNSEDMDILMERNLRLPNLLAFVRAVKNLENASAIESILKNLLPCLPLATAAPTRHPIHIKDGDWNEFRRKLTFYLKTLENAQAQQ please.
0.6 EC50 (1-133)hIL-3 / EC50 mutant
